- assayedTarget: Concanavalin-A (Canavalia ensiformis) (UniProt P02866)
- Sequence (P02866 whole entry, looked up): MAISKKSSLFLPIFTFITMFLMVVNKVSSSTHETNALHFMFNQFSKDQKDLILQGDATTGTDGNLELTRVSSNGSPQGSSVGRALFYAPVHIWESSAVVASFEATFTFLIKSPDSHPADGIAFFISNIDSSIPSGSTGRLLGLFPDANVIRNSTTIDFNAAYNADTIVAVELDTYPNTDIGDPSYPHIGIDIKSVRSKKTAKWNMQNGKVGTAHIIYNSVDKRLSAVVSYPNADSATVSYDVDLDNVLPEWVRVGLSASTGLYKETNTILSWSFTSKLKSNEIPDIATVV
- runDescription: ConA small-molecule binders, primary screen, artefact control for SMM control protein annotation, biochemical, small-molecule microarray, Alexa647 label, 635 nm (AID 1127);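 also: z combines 667 nm emission intensity with signal-to-noise across three replicate slides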
- measurementSetup: ConA-A647 binding fluorescence, higher = more signal
Label scheme for composite z-score: lower than 0.2 is N, 0.2 and above is Y.

INPUT: Kindly determine if composite z-score recorded for `COc1ccc(-c2nc3c(c4c2C[C@H](C)OC4)CN(CCC(C)C)CC3)cc1` is above or exactly 0.2.
OUTPUT: Y

INPUT: Kindly determine if composite z-score recorded for `CN(C)CCCNC(=O)[C@@H]1c2ccccc2C(=O)N(Cc2ccccc2)[C@H]1c1ccc(CO)cc1` is above or exactly 0.2.
OUTPUT: N

INPUT: Kindly determine if composite z-score recorded for `COC(=O)[C@@]1(Cc2ccc(F)cc2)[C@H]2c3cc(C(=O)N(C)C)n(Cc4ccc(OC)c(OC)c4)c3C[C@H]2CN1C(=O)c1ccccc1` is above or exactly 0.2.
OUTPUT: N

INPUT: Kindly determine if composite z-score recorded for `CCCNC(=O)[C@@H]1c2ccccc2C(=O)N(Cc2ccccc2Cl)[C@H]1c1ccc(CO)cc1` is above or exactly 0.2.
OUTPUT: Y

INPUT: Kindly determine if composite z-score recorded for `CCc1cccc(NC(=O)O[C@H]2[C@H](OC(=O)Nc3ccc4c(c3)OCO4)[C@@H](OC(=O)Nc3ccc4c(c3)OCO4)[C@@H](OC)O[C@@H]2CO)c1` is above or exactly 0.2.
OUTPUT: Y

INPUT: Kindly determine if composite z-score recorded for `CC(C)NC(=O)[C@@H]1c2ccccc2C(=O)N(CC23CC4CC(CC(C4)C2)C3)[C@H]1c1ccc(CO)cc1` is above or exactly 0.2.
OUTPUT: Y

INPUT: Kindly determine if composite z-score recorded for `COC(=O)[C@@]1(Cc2ccccc2)[C@H]2c3cc(C(=O)N4CCCC4)n(Cc4ccccn4)c3C[C@H]2CN1C(=O)c1ccccc1` is above or exactly 0.2.
OUTPUT: Y

INPUT: Kindly determine if composite z-score recorded for `COCCCNC(=O)[C@@]1(CCS(=O)(=O)c2ccccc2)N=C(c2ccc(OCCCO)cc2)O[C@H]1c1ccccc1` is above or exactly 0.2.
OUTPUT: Y

INPUT: Kindly determine if composite z-score recorded for `O=C1[C@H]2[C@H]3[C@H](O)[C@H](O)CC(=NOC[C@@H](O)COCc4ccco4)[C@H]3CC[C@H]2C(=O)N1C1CCCCC1` is above or exactly 0.2.
OUTPUT: N

---

Assign composite z-score to each entry below.
- assayedTarget: Streptavidin (Streptomyces avidinii) (UniProt P22629)
- Sequence (P22629 whole entry, looked up): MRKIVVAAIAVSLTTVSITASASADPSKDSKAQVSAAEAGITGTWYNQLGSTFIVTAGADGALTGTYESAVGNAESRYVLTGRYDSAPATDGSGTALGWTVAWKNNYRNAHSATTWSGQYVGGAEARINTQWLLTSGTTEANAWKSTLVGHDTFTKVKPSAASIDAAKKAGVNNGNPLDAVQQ
- runDescription: streptavidin binders on small-molecule microarray, primary screen, artefact control for SMM compound annotation, biophysical, 635/667 nm fluorescence (AID 1147);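 also: signal reflects streptavidin binding to arrayed compounds as a control protein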
- measurementSetup: streptavidin binding, higher = more signal
Lab note: jot down the number only; don't add units.

INPUT: Form field: reported composite z-score of Cc1cc2c(nc1C)CCCN2CC(O)CN1CCN(C)CC1 (stereo unspecified)
OUTPUT: 0.549

INPUT: Form field: reported composite z-score of `C=C(COC)/C(=C/C[C@H](OC(=O)c1ccncc1)c1ccc(CO)o1)c1cc(C(=O)OC)ccc1OC`
OUTPUT: -0.24

INPUT: Form field: reported composite z-score of COc1cccc([C@H]2Oc3ccc(OC)cc3C(=NOC(C)CN3CCCc4nc(C)c(C)cc43)[C@@H]2O)c1 (stereo partly specified)
OUTPUT: -0.504

INPUT: Form field: reported composite z-score of `O=C1[C@H]2[C@H]3[C@H](O)[C@H](O)CC(=NOC[C@@H](O)COCc4ccco4)[C@H]3CC[C@H]2C(=O)N1C1CCCCC1`
OUTPUT: -0.112

INPUT: Form field: reported composite z-score of `C=CCOC(=O)[C@H]1[C@@H]2C(=O)O[C@@H](c3ccccc3)[C@@H](c3ccccc3)N2[C@@H](c2ccc(OCCOC(=O)[C@H]3C[C@H]4C(=O)N[C@@H](Cc5ccccc5)C(=O)N4[C@H]3c3ccc(O)cc3)cc2)[C@]12C(=O)Nc1ccccc12`
OUTPUT: -0.261

INPUT: Form field: reported composite z-score of `CCCC[C@@H]1C[C@H]1[C@@H](NS(=O)(=O)c1cccc2cccnc12)c1ccc(-c2ccccc2)cc1`
OUTPUT: 0.731

INPUT: Form field: reported composite z-score of CC1CC/C=C\[C@H]2OC34C=CCN(Cn5nnc6ccccc65)C(=O)[C@H]3N(CCO)C(=O)[C@@H]4C2C(=O)O1 (stereo partly specified)
OUTPUT: -0.923

INPUT: Form field: reported composite z-score of `C=CC[C@]1(C(=O)NCc2ccccc2)N=C(c2ccc(OCCCO)cc2)O[C@H]1c1ccccc1`
OUTPUT: -0.134

INPUT: Form field: reported composite z-score of `CCN1C(=O)[C@H]2[C@H]3[C@H](O)[C@H](O)CC(=NOCc4ccccc4)[C@H]3CC[C@H]2C1=O`
OUTPUT: 0.201

INPUT: Form field: reported composite z-score of `C=C(/C(=C/C[C@H](OC(=O)c1ccncc1)c1ccc(OCCO)cc1)c1cnc2ccccc2c1)C(C)C`
OUTPUT: 1.3

INPUT: Form field: reported composite z-score of `[N-]=[N+]=Nc1ccccc1C[C@@]1(C(N)=O)N=C(c2ccc(OCCCO)cc2)O[C@@H]1c1ccccc1`
OUTPUT: 1.08

---

- runDescription: E. coli acrAB mutant growth effects, primary screen, E. coli filamentation inducers, strain DRC39, OD650, 24 h (AID 1178);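 also: growth measured as culture turbidity by optical density at 650 nm; test concentration not given here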
- measurementSetup: higher = more signal, called active from +8 up or from −8 down
Label scheme for z-score: lower than 0.3 is 0 (no), 0.3 and above is 1 (yes).

INPUT: Kindly determine if z-score recorded for `CCCNC(=O)OC[C@H]1O[C@H](CCON=C2[C@H]3CCn4c(=O)n(-c5ccccc5)c(=O)n4[C@H]3[C@H](O)[C@@H]3O[C@H]23)C=C[C@@H]1Oc1ccc(OC)cc1` is above or exactly 0.3.
OUTPUT: 1 (yes)

INPUT: Kindly determine if z-score recorded for COC(=O)[C@H](C)NC(=O)CCC1CC(OC(=O)NCc2cccc3ccccc23)CC2(CCCC(COC(=O)NCC3CCCCC3)O2)O1 (stereo not given in full) is above or exactly 0.3.
OUTPUT: 0 (no)

INPUT: Kindly determine if z-score recorded for `CO[C@@H]1COC(=O)CC=C[C@@H](C)COC(=O)[C@H](COCc2ccccc2)NC(=O)CC=C[C@H]1C` is above or exactly 0.3.
OUTPUT: 1 (yes)

INPUT: Kindly determine if z-score recorded for `Cc1ccc(S[C@]2(C(=O)O)CC(=O)N(Cc3ccccc3)[C@@H]2c2ccc(CO)cc2I)cc1` is above or exactly 0.3.
OUTPUT: 0 (no)

---

- runDescription: basal 3T3-L1 adipocyte mitochondrial potential changes, profiling panel, cell-based, JC-1 fluorescence, 3T3-L1 adipocytes, 24 h, 100 nL compound (AID 1168); also: test concentration not given here
- measurementSetup: JC-1 mitochondrial fluorescence, higher = more signal, called active from +8 up or from −8 down
Group membership follows z-score per the scheme low band: < -0.6; middle band: ≥ -0.6 and < 0.2; high band: ≥ 0.2

INPUT: Could you place `CCCC[C@H]1OB(O)C[C@H]2C1=C(C)C[C@H]1C(=O)N(C)C(=O)[C@H]12` in its proper category? Many thanks.
OUTPUT: middle band

INPUT: Could you place `CCCC[C@@H](O)C1=C(C)C[C@H]2C(=O)N(Cc3ccccc3)C(=O)[C@H]2[C@H]1CO` in its proper category? Many thanks.
OUTPUT: middle band

INPUT: Could you place `COc1ccc(COC(=O)NN=C2C[C@@H](O)[C@@H](O)[C@@H]3[C@@H]4C(=O)N(Cc5ccc6c(c5)OCO6)C(=O)[C@@H]4CC[C@@H]23)cc1` in its proper category? Many thanks.
OUTPUT: high band

INPUT: Could you place `CC(C)CN1CCc2nc(-c3ccccc3)c3c(c2CC1)CO[C@@H](C)C3` in its proper category? Many thanks.
OUTPUT: middle band

INPUT: Could you place `COC(=O)[C@@]1(Cc2ccc(OC)cc2)[C@H]2c3cc(C(=O)N4CCCC4)n(Cc4cc(F)c(F)c(F)c4)c3C[C@H]2CN1C(=O)c1ccccc1` in its proper category? Many thanks.
OUTPUT: low band

INPUT: Could you place O[C@@H](Cc1ccccc1)[C@H]1C2C=CCCC(c3ccccc3)=C2CN1Cc1cccc(Cl)c1 (stereo partly drawn) in its proper category? Many thanks.
OUTPUT: middle band

INPUT: Could you place CC(=O)O[C@H]1C2=C(C(=O)[C@@H]3O[C@@H]31)[C@H]1C(C)O[C@@H]2[C@@]23C(=O)[C@@H]4O[C@@H]4[C@@H](O)C2=CO[C@H](C)[C@@H]13 (stereo partly drawn) in its proper category? Many thanks.
OUTPUT: low band

INPUT: Could you place `COc1ccc(O[C@@H]2[C@H](O)CO[C@H]2C=CC#Cc2ccccc2)cc1` in its proper category? Many thanks.
OUTPUT: middle band

INPUT: Could you place `COCCCNC(=O)[C@@]1(C)c2ccccc2C(=O)N(Cc2ccc(OC(F)(F)F)cc2)[C@H]1c1ccc(CO)cc1` in its proper category? Many thanks.
OUTPUT: high band

INPUT: Could you place CCOC(=O)[C@H](Cc1ccccc1)NC(=O)CCC1CC(OC(=O)NCc2ccc3c(c2)OCO3)CC2(CCCC(COC(=O)NCC(c3ccccc3)c3ccccc3)O2)O1 (stereo partly drawn) in its proper category? Many thanks.
OUTPUT: low band

INPUT: Could you place `CC(=O)OC[C@H]1O[C@H](CCON=C(C)CCN2CCc3nc(-c4ccccc4)c(-c4ccccc4)cc3C2)C=C[C@@H]1OC(C)=O` in its proper category? Many thanks.
OUTPUT: low band
